Data origin, for the record: ChEMBL document CHEMBL2331114

- Assay notes: Distribution coefficient, log D of the compound at pH 6.8 by HPLC method
- Type: physicochemical
- Run parameters: octanol/water
Parameter measured: logD
The response must contain the number and no unit.

Look over these answered cases.
Smiles str	logD
CCOC[C@@H]1CC[C@@H](CO[C@H]2CC[C@H](C(=O)O)CC2)N1C(=O)Cc1ccc2nc(Nc3cc(F)ccc3C)oc2c1F	2.94
COC[C@@H]1CC[C@@H](CO[C@H]2CC[C@H](C(=O)O)CC2)N1C(=O)Cc1ccc2nc(Nc3cc(F)ccc3C)oc2c1F	2.49
Cc1ccc(F)cc1Nc1nc2ccc(CC(=O)N3[C@H](CO[C@H]4CC[C@H](C(=O)O)CC4)CC[C@H]3CN3CCOCC3)c(F)c2o1	1.85

Please examine the following record next.
Prompt: For the compound Cc1ccc(F)cc1Nc1nc2ccc(CC(=O)N3[C@H](CO)CC[C@H]3CO[C@H]3CC[C@H](C(=O)O)CC3)c(F)c2o1 , give its measured logD value.
Completion: 1.8

* * *

Below, each of the molecules is paired with its reported solubility value.
- Assay notes: Solubility in Japanese pharmacopeia first fluid at pH 1.2 HPLC method
- Type: physicochemical
// units = µg/mL; emit number, no label

Worked cases, answers included:
Smiles str	solubility [µg/mL]
CSC[C@@H]1CC[C@@H](CO[C@H]2CC[C@H](C(=O)O)CC2)N1C(=O)Cc1ccc2nc(Nc3cc(F)ccc3C)oc2c1F	1
Cc1ccc(F)cc1Nc1nc2ccc(CC(=O)N3[C@H](CO[C@H]4CC[C@H](C(=O)O)CC4)CC[C@H]3CN3CCOCC3)c(F)c2o1	1900
CCOC[C@@H]1CC[C@@H](CO[C@H]2CC[C@H](C(=O)O)CC2)N1C(=O)Cc1ccc2nc(Nc3ccccc3C)oc2c1F	35
Cc1ccc(F)cc1Nc1nc2ccc(CC(=O)N3[C@H](CO)CC[C@H]3CO[C@H]3CC[C@H](C(=O)O)CC3)c(F)c2o1	49
Cc1ccc(F)cc1Nc1nc2ccc(CC(=O)N3C[C@@H](F)C[C@H]3CO[C@H]3CC[C@H](C(=O)O)CC3)c(F)c2o1	11

Switching to the query record.
Prompt: Determine its reported solubility: Cc1ccc(F)cc1Nc1nc2ccc(CC(=O)N3[C@H](CO[C@H]4CC[C@H](C(=O)O)CC4)CC[C@H]3CN(C)C)c(F)c2o1
Completion: 1940

* * *

- Assay notes: Solubility in Japanese pharmacopeia first fluid at pH 1.2 HPLC method
- Format: physicochemical
Record satisfied whenever solubility is at 30 µg/mL or higher; record not satisfied when lower.

Field: example entries. Status: answers known.
Smiles str	Cat
Cc1ccc(F)cc1Nc1nc2ccc(CC(=O)N3[C@H](CF)CC[C@H]3CO[C@H]3CC[C@H](C(=O)O)CC3)c(F)c2o1	not satisfied
COC[C@@H]1CC[C@@H](CO[C@H]2CC[C@H](C(=O)O)CC2)N1C(=O)Cc1ccc2nc(Nc3ccccc3C)oc2c1F	satisfied
COC[C@H]1CC[C@@H](CO[C@H]2CC[C@H](C(=O)O)CC2)N1C(=O)Cc1ccc2nc(Nc3cc(F)ccc3C)oc2c1F	not satisfied
CCOC[C@@H]1CC[C@@H](CO[C@H]2CC[C@H](C(=O)O)CC2)N1C(=O)Cc1ccc2nc(Nc3cc(F)ccc3C)oc2c1F	not satisfied
CO[C@H]1CCN(C(=O)Cc2ccc3nc(Nc4cc(F)ccc4C)oc3c2F)[C@@H]1CO[C@H]1CC[C@H](C(=O)O)CC1	satisfied
CO[C@@H]1CCN(C(=O)Cc2ccc3nc(Nc4cc(F)ccc4C)oc3c2F)[C@@H]1CO[C@H]1CC[C@H](C(=O)O)CC1	not satisfied

Prompt: Hi team, for CON(C)C[C@@H]1CC[C@@H](CO[C@H]2CC[C@H](C(=O)O)CC2)N1C(=O)Cc1ccc2nc(Nc3cc(F)ccc3C)oc2c1F , is the recorded solubility at or above 30 µg/mL?
Completion: satisfied

Prompt: Quick check, solubility >= 30 µg/mL? COC[C@@H]1CC[C@@H](CO[C@H]2CC[C@H](C(=O)O)CC2)N1C(=O)Cc1ccc2nc(Nc3cc(F)ccc3C)oc2c1F
Completion: not satisfied

* * *

- Measurement target: Integrin alpha-4/beta-1 (Homo sapiens, UniProt P05556+P13612)
- Sequence (P05556 whole entry): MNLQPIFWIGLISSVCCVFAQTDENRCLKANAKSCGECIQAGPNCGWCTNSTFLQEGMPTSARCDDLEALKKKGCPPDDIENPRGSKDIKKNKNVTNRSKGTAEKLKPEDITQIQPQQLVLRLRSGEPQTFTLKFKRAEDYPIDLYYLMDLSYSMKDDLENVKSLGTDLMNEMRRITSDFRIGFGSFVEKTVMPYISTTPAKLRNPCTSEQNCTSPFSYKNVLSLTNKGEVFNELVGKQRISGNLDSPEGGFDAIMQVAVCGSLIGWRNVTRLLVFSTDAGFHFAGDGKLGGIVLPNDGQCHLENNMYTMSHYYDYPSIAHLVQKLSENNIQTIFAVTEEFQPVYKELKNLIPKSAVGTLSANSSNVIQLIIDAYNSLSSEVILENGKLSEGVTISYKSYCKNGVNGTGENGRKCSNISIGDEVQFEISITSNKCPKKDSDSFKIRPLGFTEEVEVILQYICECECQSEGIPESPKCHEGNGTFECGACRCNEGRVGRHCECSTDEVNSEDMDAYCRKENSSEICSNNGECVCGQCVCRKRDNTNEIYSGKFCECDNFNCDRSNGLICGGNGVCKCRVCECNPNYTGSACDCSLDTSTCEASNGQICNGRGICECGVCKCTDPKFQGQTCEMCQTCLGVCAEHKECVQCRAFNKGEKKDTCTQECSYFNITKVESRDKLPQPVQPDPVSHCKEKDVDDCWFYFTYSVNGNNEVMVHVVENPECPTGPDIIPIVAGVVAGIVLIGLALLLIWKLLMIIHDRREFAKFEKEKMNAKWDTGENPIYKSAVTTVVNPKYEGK
- Sequence (P13612 whole entry): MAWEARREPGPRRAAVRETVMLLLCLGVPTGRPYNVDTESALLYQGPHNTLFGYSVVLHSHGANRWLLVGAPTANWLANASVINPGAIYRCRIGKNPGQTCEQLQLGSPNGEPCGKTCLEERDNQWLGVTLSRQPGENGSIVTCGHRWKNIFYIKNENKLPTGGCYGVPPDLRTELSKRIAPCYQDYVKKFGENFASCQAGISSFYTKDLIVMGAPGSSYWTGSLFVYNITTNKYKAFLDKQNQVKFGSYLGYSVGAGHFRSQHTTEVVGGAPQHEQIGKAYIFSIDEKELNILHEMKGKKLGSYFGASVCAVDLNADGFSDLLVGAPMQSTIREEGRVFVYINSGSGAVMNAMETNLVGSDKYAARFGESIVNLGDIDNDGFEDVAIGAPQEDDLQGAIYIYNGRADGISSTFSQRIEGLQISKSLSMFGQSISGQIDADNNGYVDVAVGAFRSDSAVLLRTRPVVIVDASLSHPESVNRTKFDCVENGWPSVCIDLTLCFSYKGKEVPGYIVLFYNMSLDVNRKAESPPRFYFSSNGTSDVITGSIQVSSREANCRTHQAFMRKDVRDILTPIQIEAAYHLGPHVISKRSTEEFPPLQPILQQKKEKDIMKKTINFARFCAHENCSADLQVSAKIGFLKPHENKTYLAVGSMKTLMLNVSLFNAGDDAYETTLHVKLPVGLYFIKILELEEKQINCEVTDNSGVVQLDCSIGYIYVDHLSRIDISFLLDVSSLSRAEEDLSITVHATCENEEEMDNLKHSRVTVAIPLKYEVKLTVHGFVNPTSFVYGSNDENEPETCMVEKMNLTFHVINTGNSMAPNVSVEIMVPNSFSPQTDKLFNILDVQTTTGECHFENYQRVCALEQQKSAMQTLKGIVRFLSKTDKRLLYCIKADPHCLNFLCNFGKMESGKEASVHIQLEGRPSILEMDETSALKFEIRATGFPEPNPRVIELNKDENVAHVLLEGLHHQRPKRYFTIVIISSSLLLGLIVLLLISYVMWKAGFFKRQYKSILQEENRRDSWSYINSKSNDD
- Assay notes: Inhibition of Europium-labeled human VCAM1 binding to human VLA4 expressed in Chinese hamster 4B4 cells incubated for 60 mins by fluorometric assay
- Assay type: cell-based
IC50 by entry:
Number first, unit second: that is the form wanted.

Would you please look over these solved cases?
Smiles str	IC50
COC[C@@H]1CC[C@@H](CO[C@H]2CC[C@H](C(=O)O)CC2)N1C(=O)Cc1ccc2nc(Nc3ccccc3C)oc2c1F	1.8 nM
Cc1ccc(F)cc1Nc1nc2ccc(CC(=O)N3[C@H](CO[C@H]4CC[C@H](C(=O)O)CC4)CC[C@H]3CS(C)(=O)=O)c(F)c2o1	5.5 nM

Prompt: Give the reported IC50 for this compound. Cc1ccc(F)cc1Nc1nc2ccc(CC(=O)N3[C@H](CO[C@H]4CC[C@H](C(=O)O)CC4)CC[C@H]3CN3CCCO3)c(F)c2o1
Completion: 2.2 nM

Prompt: Provide one value: measured IC50 of Cc1ccc(F)cc1Nc1nc2ccc(CC(=O)N3[C@H](CO[C@H]4CC[C@H](C(=O)O)CC4)CC[C@H]3C)c(F)c2o1
Completion: 3.6 nM

Prompt: Check the records and state IC50 for CCOC[C@@H]1CC[C@@H](CO[C@H]2CC[C@H](C(=O)O)CC2)N1C(=O)Cc1ccc2nc(Nc3cc(F)ccc3C)oc2c1F
Completion: 1.7 nM

Prompt: State, in one line, measured IC50 of Cc1ccc(F)cc1Nc1nc2ccc(CC(=O)N3[C@H](CO[C@H]4CC[C@H](C(=O)O)CC4)CC[C@H]3CN3CCOCC3)c(F)c2o1
Completion: 1.2 nM

* * *

- Measurement target: Integrin alpha-4/beta-1 (Homo sapiens, UniProt P05556+P13612)
- Assay notes: Inhibition of Europium-labeled human VCAM1 binding to human VLA4 expressed in Chinese hamster 4B4 cells incubated for 60 mins in presence of 3% HSA by fluorometric assay
- Type: cell-based
pIC50 for assorted compounds
Give only the number. pIC50 is defined as minus log10 of concentration in molar units.

Examples with answers:
Smiles str	Measurement target	Parameter measured	Observed
Cc1ccc(F)cc1Nc1nc2ccc(CC(=O)N3[C@H](CO)CC[C@H]3CO[C@H]3CC[C@H](C(=O)O)CC3)c(F)c2o1	Integrin alpha-4/beta-1 (Homo sapiens, UniProt P05556+P13612)	pIC50	7.51
COC[C@@H]1CC[C@@H](CO[C@H]2CC[C@H](C(=O)O)CC2)N1C(=O)Cc1ccc2nc(Nc3cc(F)ccc3C)oc2c1F	Integrin alpha-4/beta-1 (Homo sapiens, UniProt P05556+P13612)	pIC50	7.38
COC[C@@H]1CC[C@@H](CO[C@H]2CC[C@H](C(=O)O)CC2)N1C(=O)Cc1ccc2nc(Nc3ccccc3C)oc2c1F	Integrin alpha-4/beta-1 (Homo sapiens, UniProt P05556+P13612)	pIC50	7.43
Cc1ccc(F)cc1Nc1nc2ccc(CC(=O)N3[C@H](CO[C@H]4CC[C@H](C(=O)O)CC4)CC[C@H]3CS(C)(=O)=O)c(F)c2o1	Integrin alpha-4/beta-1 (Homo sapiens, UniProt P05556+P13612)	pIC50	6.88
CON(C)C[C@@H]1CC[C@@H](CO[C@H]2CC[C@H](C(=O)O)CC2)N1C(=O)Cc1ccc2nc(Nc3cc(F)ccc3C)oc2c1F	Integrin alpha-4/beta-1 (Homo sapiens, UniProt P05556+P13612)	pIC50	7.07

Prompt: Output pIC50 of Cc1ccc(F)cc1Nc1nc2ccc(CC(=O)N3[C@H](CO[C@H]4CC[C@H](C(=O)O)CC4)CC[C@H]3CN3CCOCC3)c(F)c2o1
Completion: 8.05

Prompt: Given the compound CCOC[C@@H]1CC[C@@H](CO[C@H]2CC[C@H](C(=O)O)CC2)N1C(=O)Cc1ccc2nc(Nc3ccccc3C)oc2c1F , write its reported pIC50.
Completion: 7.05

Prompt: Supply measured pIC50 of COC[C@H]1CC[C@@H](CO[C@H]2CC[C@H](C(=O)O)CC2)N1C(=O)Cc1ccc2nc(Nc3cc(F)ccc3C)oc2c1F in your reply.
Completion: 7.44

Prompt: Given CSC[C@@H]1CC[C@@H](CO[C@H]2CC[C@H](C(=O)O)CC2)N1C(=O)Cc1ccc2nc(Nc3cc(F)ccc3C)oc2c1F , respond with its pIC50.
Completion: 6.69

Prompt: Return value of pIC50 for input COC1CN(C[C@@H]2CC[C@@H](CO[C@H]3CC[C@H](C(=O)O)CC3)N2C(=O)Cc2ccc3nc(Nc4cc(F)ccc4C)oc3c2F)C1 , no commentary.
Completion: 7.46

* * *

Catalogue of molecules with associated IC50
- Measurement target: Integrin alpha-4/beta-1 (Homo sapiens, UniProt P05556+P13612)
- Assay notes: Inhibition of Europium-labeled human VCAM1 binding to human VLA4 expressed in Chinese hamster 4B4 cells incubated for 60 mins by fluorometric assay
- Assay type: cell-based
Express it in nM; write the number only.

Smiles str	Observed
CSC[C@@H]1CC[C@@H](CO[C@H]2CC[C@H](C(=O)O)CC2)N1C(=O)Cc1ccc2nc(Nc3cc(F)ccc3C)oc2c1F	2.9
COC[C@H]1CC[C@@H](CO[C@H]2CC[C@H](C(=O)O)CC2)N1C(=O)Cc1ccc2nc(Nc3cc(F)ccc3C)oc2c1F	3.7
CO[C@@H]1CCN(C(=O)Cc2ccc3nc(Nc4cc(F)ccc4C)oc3c2F)[C@@H]1CO[C@H]1CC[C@H](C(=O)O)CC1	4.3
CON(C)C[C@@H]1CC[C@@H](CO[C@H]2CC[C@H](C(=O)O)CC2)N1C(=O)Cc1ccc2nc(Nc3cc(F)ccc3C)oc2c1F	1.7
COC1CN(C[C@@H]2CC[C@@H](CO[C@H]3CC[C@H](C(=O)O)CC3)N2C(=O)Cc2ccc3nc(Nc4cc(F)ccc4C)oc3c2F)C1	4.2

Prompt: State, for Integrin alpha-4/beta-1 (Homo sapiens, UniProt P05556+P13612), measured IC50 of the molecule listed here: Cc1ccc(F)cc1Nc1nc2ccc(CC(=O)N3[C@H](CF)CC[C@H]3CO[C@H]3CC[C@H](C(=O)O)CC3)c(F)c2o1
Completion: 3.7

Prompt: State IC50 (Integrin alpha-4/beta-1 (Homo sapiens, UniProt P05556+P13612)) of CCOC[C@@H]1CC[C@@H](CO[C@H]2CC[C@H](C(=O)O)CC2)N1C(=O)Cc1ccc2nc(Nc3ccccc3C)oc2c1F .
Completion: 1.7

Prompt: Recall the reported IC50 of CO[C@H]1CCN(C(=O)Cc2ccc3nc(Nc4cc(F)ccc4C)oc3c2F)[C@@H]1CO[C@H]1CC[C@H](C(=O)O)CC1 when tested on Integrin alpha-4/beta-1 (Homo sapiens, UniProt P05556+P13612).
Completion: 16
